System: NCI-H23
procedure summary: relative viability (nuclei count vs DMSO), 5 days (fraction); higher = more cells survive
experimental context: first compound 0.6325 µM
Mark Met only when relative viability stays strictly below 0.7. Values equal to the cut-off are Not met.

Worked examples, 5 molecules total:
CN1CCN(CCOc2cc(OC3CCOCC3)c3c(Nc4c(Cl)ccc5c4OCO5)ncnc3c2)CC1 [Saracatinib] + CC1(C)CCC(c2ccc(Cl)cc2)=C(CN2CCN(c3ccc(C(=O)NS(=O)(=O)c4ccc(N[C@H](CCN5CCOCC5)CSc5ccccc5)c(S(=O)(=O)C(F)(F)F)c4)cc3)CC2)C1 [Navitoclax] (partner 0.5 µM); Not met
Cc1csc(=NC2CCCCC2)n1/N=C/c1ccc(O)c(O)c1O [MIM1] + Nc1nc2[nH]cc(CCc3ccc(C(=O)N[C@@H](CCC(=O)O)C(=O)O)cc3)c2c(=O)[nH]1 [Pemetrexed] (partner 0.2 µM); Met
CN1CCN(CCOc2cc(OC3CCOCC3)c3c(Nc4c(Cl)ccc5c4OCO5)ncnc3c2)CC1 [Saracatinib] + NC(=O)Nc1cc(-c2cccc(F)c2)sc1C(=O)N[C@H]1CCCNC1 [AZD7762] (partner 0.2 µM); Met
Cc1csc(=NC2CCCCC2)n1/N=C/c1ccc(O)c(O)c1O [MIM1] + CC(=O)c1c(C)c2cnc(Nc3ccc(N4CCNCC4)cn3)nc2n(C2CCCC2)c1=O [Palbociclib] (partner 0.5 µM); Met
CN1CCN(CCOc2cc(OC3CCOCC3)c3c(Nc4c(Cl)ccc5c4OCO5)ncnc3c2)CC1 [Saracatinib] + O=C(CCCCCCC(=O)Nc1ccccc1)NO [Vorinostat] (partner 1 µM); Met

(Q) Is relative viability of CN1CCN(CCOc2cc(OC3CCOCC3)c3c(Nc4c(Cl)ccc5c4OCO5)ncnc3c2)CC1 [Saracatinib] + Cc1nc(NC(=O)N2CCC[C@H]2C(N)=O)sc1-c1ccnc(C(C)(C)C(F)(F)F)c1 [Alpelisib] (partner 2 µM) strictly below 0.7?
(A) Not met

(Q) Can you check CN1CCN(CCOc2cc(OC3CCOCC3)c3c(Nc4c(Cl)ccc5c4OCO5)ncnc3c2)CC1 [Saracatinib] + Nc1nc2[nH]cc(CCc3ccc(C(=O)N[C@@H](CCC(=O)O)C(=O)O)cc3)c2c(=O)[nH]1 [Pemetrexed] (partner 0.2 µM) next?
(A) Met

---

System: ABC-1
procedure summary: relative viability (nuclei count vs DMSO), 5 days (fraction); higher = more cells survive
experimental context: first compound 0.01 µM
Consider the following compounds; for each one, report its relative viability.

Take a look at these entries with their results.
Cc1cn(-c2cc(NC(=O)c3ccc(C)c(Nc4nccc(-c5cccnc5)n4)c3)cc(C(F)(F)F)c2)cn1 [Nilotinib] + CS(=O)(=O)CCNCc1ccc(-c2ccc3ncnc(Nc4ccc(OCc5cccc(F)c5)c(Cl)c4)c3c2)o1 [Lapatinib] (partner 2 µM); 1.35
Cc1cn(-c2cc(NC(=O)c3ccc(C)c(Nc4nccc(-c5cccnc5)n4)c3)cc(C(F)(F)F)c2)cn1 [Nilotinib] + Cc1nc(Nc2ncc(C(=O)Nc3c(C)cccc3Cl)s2)cc(N2CCN(CCO)CC2)n1 [Dasatinib] (partner 0.075 µM); 0.643

--- query ---
(Q) Any idea what relative viability was measured for Cc1cn(-c2cc(NC(=O)c3ccc(C)c(Nc4nccc(-c5cccnc5)n4)c3)cc(C(F)(F)F)c2)cn1 [Nilotinib] + C[C@@H](Oc1cc(-c2cnn(C3CCNCC3)c2)cnc1N)c1c(Cl)ccc(F)c1Cl [Crizotinib] (partner 1 µM) ?
(A) 1.5
